# credit: PubChem BioAssay (NCI)

System: SK-MEL-2 melanoma
Assay: NCI-60 one-dose screen, 48 h
Settings: 10 µM unless noted
The panel holds about 83,000 compounds, 20% with a hit somewhere; the sample as a whole holds those more often. Calls of active or inactive are those of the source. How the source made its calls: active means growth percent below 10; inactive means the rest.
Please answer using one outcome listed in active, inactive

Illustrative cases are given below, each with its answer.
>  <compound>
Cc1ccc(-c2nc3nc(-c4ccccc4)nc(N4CCNCC4)c3o2)cc1

>  <assayed system>
SK-MEL-2 melanoma

>  <class label>
active

$$$$
>  <compound>
O=C(Nc1cccnc1Nc1ccc(F)cc1)c1cn(Cc2cccc(Oc3ccccc3)c2)nn1

>  <assayed system>
SK-MEL-2 melanoma

>  <class label>
inactive

$$$$
>  <compound>
CCCCCCNC(=O)Oc1ccc(/C(=C(/C)Cc2ccc(OC)cc2)c2ccc(OCCCN(C)C)cc2)cc1

>  <assayed system>
SK-MEL-2 melanoma

>  <class label>
inactive

$$$$

Enquiry: Returns: the outcome recorded for CNc1nc(S(=O)c2ccc(C#N)cc2)nc2ccccc12 (stereo unspecified) in this assay.
Return: inactive

Enquiry: Returns: the outcome recorded for `CCOC(=O)c1[nH]c(=O)c2c(C)nc(-c3ccccc3)cc2c1O` in this assay.
Return: inactive

Enquiry: Returns: the outcome recorded for `O=C(Cn1c(-c2ccc([N+](=O)[O-])cc2)nc2ccccc21)NNC(=O)c1cccnc1` in this assay.
Return: inactive

---

Test system: ACHN renal
Test: NCI-60 one-dose screen, 48 h
Settings: 10 µM unless noted
About 83,000 compounds went through this panel and 20% of them were active in at least one assay; those are over-represented in the sample as a whole. Active and inactive are the calls of the source. How the source made its calls: active means growth percent below 10; inactive means the rest.
Please answer using one outcome listed in active, inactive

Illustrative cases are given below, each with its answer.
>  <compound>
O=C(Nc1cc(Cl)ccc1O)c1ccc(Nc2ccnc(C(F)(F)F)c2)cc1

>  <class label>
inactive

$$$$
>  <compound>
CCCC(O)Cn1ncc(C(=O)OCC)c1NC(=O)NCc1ccccc1F (stereo not given)

>  <class label>
inactive

$$$$
>  <compound>
CC(C)OC(=O)c1ccc2[nH]c(O)c(C(=Nc3ccc(N(C)C(=O)CN4CCN(C)CC4)cc3)c3ccccc3)c2c1

>  <class label>
active

$$$$
>  <compound>
CC(=O)Nc1nc2ccc(NS(=O)(=O)c3cccc4c(N(C)C)cccc34)cc2[nH]1

>  <class label>
inactive

$$$$

Okay, next one:
Enquiry: Returns: the outcome recorded for `COc1ccc2c(O)c(/C=C3\N=Nc4ccccc43)oc2c1C[C@@H]1CCNC[C@H]1F` in this assay.
Return: inactive

---

Tested on: PC-3 prostate
Experiment: NCI-60 one-dose screen, 48 h (100 = growth as untreated, 0 = no growth, -100 = all killed)
Conditions: 10 µM unless noted
Compounds without any hit were thinned out: in the full panel of roughly 83,000, 20% have a hit.
Please mark t if the recorded growth is equal to or greater than 30%, and f if it falls below.

Illustrative cases are given below, each with its answer.
>  <molecule>
CC1(C)CC[C@]2(C(=O)O)CC[C@]3(C)C(=CC[C@@H]4[C@@]5(C)C/C(=C/O)C(=O)C(C)(C)[C@@H]5CC[C@]43C)[C@@H]2C1

>  <assayed system>
PC-3 prostate

>  <class label>
t

$$$$
>  <molecule>
CCN1CC(=O)N(/N=C2\C(=O)Nc3ccccc32)C1=S

>  <assayed system>
PC-3 prostate

>  <class label>
t

$$$$

Enquiry: Hi, just wondering whether `CCN(CC)CCNC(=O)c1cn2ncnc(Oc3ccc(NC(=O)Nc4ccc(Cl)c(C(F)(F)F)c4)c(F)c3)c2c1C` shows growth of 30% or higher.
Return: f

Enquiry: Hi, just wondering whether `COc1ccc2[nH]cc(-c3nc(-c4cn(C)c5c(Cl)nccc45)cs3)c2c1` shows growth of 30% or higher.
Return: f

Enquiry: Hi, just wondering whether CCc1ccc(C(=O)/C=C/C23c4ccccc4C(c4ccccc42)C2C(=O)NC(=O)C23)cc1 (configuration not stated) shows growth of 30% or higher.
Return: f

Enquiry: Hi, just wondering whether `CC(C)=CCC[C@](C)(O)[C@H]1CC[C@]2(C)[C@@H]1CC[C@@H]1[C@@]3(C)Cc4nccnc4C(C)(C)[C@@H]3CC[C@]12C` shows growth of 30% or higher.
Return: t

Enquiry: Hi, just wondering whether `CCOC(=O)C1=NN(c2ccccc2)C(=O)/C1=C\N1C(=O)CC(=O)NC1=S` shows growth of 30% or higher.
Return: t
